Assay: in vivo
Details: CD1 nude, mouse, 0.5 nmol/mouse, total radioactivity, Muscle uptake
property: tissue uptake at 4 h (%ID/g)
Reply with just the number (in %ID/g).

Incoming: Which tissue uptake at 4 h value is on record for Cc1ccc(CCCC(=O)NCCOCCOCCOCCOCCOCCC(=O)NCCCC[C@H](NC(=O)CN2CCN(CC(=O)O)CCN(CC(=O)O)CCN(CC(=O)O)CC2)C(=O)N[C@@H](CC(=O)O)C(=O)N[C@@H](CC2CCCCC2)C(=O)N[C@@H](Cc2ccccc2)C(=O)N[C@H](CO)C(=O)N[C@H](CCCNC(=N)N)C(=O)N[C@@H](Cc2ccc(O)cc2)C(=O)N[C@@H](CC(C)C)C(=O)N[C@@H](Cc2c[nH]c3ccccc23)C(=O)N[C@@H](CO)C(N)=O)cc1 [[^177Lu]Lu-uPAR-18, metal not drawn] ?
Outgoing: 0.37

* * *

A short record of Kd observed with human uPAR (Homo sapiens) follows.
Sequence (Q03405 23-335): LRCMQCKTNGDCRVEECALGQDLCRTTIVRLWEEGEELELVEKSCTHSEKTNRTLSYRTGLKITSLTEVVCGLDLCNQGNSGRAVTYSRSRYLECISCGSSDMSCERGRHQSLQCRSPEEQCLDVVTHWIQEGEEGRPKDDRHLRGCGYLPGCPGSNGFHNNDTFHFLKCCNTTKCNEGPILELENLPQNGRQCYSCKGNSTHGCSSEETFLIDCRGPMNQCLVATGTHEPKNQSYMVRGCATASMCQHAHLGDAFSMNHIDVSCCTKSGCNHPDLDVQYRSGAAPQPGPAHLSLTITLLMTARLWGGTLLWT
The response must be a number in nM with no trailing unit.

{"compound": "Cc1ccc(CCCC(=O)NCCCCCCCC(=O)NCCCC[C@H](NC(=O)CN2CCN(CC(=O)O)CCN(CC(=O)O)CCN(CC(=O)O)CC2)C(=O)N[C@@H](CC(=O)O)C(=O)N[C@@H](CC2CCCCC2)C(=O)N[C@@H](Cc2ccccc2)C(=O)N[C@H](CO)C(=O)N[C@H](CCCNC(=N)N)C(=O)N[C@@H](Cc2ccc(O)cc2)C(=O)N[C@@H](CC(C)C)C(=O)N[C@@H](Cc2c[nH]c3ccccc23)C(=O)N[C@@H](CO)C(N)=O)cc1 [[^177Lu]Lu-uPAR-12, metal not drawn]", "test system": "human uPAR (Homo sapiens)", "recorded result": 38}

Incoming: Item Cc1ccc(CCCC(=O)NCCOCCOCCOCCOCCC(=O)NCCCC[C@H](NC(=O)CC[C@H](C(=O)O)N2CCN(CC(=O)O)CCN(CC(=O)O)CCN(CC(=O)O)CC2)C(=O)N[C@@H](CC(=O)O)C(=O)N[C@@H](CC2CCCCC2)C(=O)N[C@@H](Cc2ccccc2)C(=O)N[C@H](CO)C(=O)N[C@H](CCCNC(=N)N)C(=O)N[C@@H](Cc2ccc(O)cc2)C(=O)N[C@@H](CC(C)C)C(=O)N[C@@H](Cc2c[nH]c3ccccc23)C(=O)N[C@@H](CO)C(N)=O)cc1 [[^177Lu]Lu-uPAR-17, metal not drawn] has what recorded Kd?
Outgoing: 31

* * *

The entries below are paired with their reported tissue uptake at 24 h.
Experiment: in vivo
Settings: CD1 nude, mouse, 0.5 nmol/mouse, total radioactivity, Salivary glands uptake
Answer in %ID/g, number only, no unit symbol.

{"compound": "Cc1ccc(CCCC(=O)NCCOCCOCCOCCC(=O)NCCCC[C@H](NC(=O)CN2CCN(CC(=O)O)CCN(CC(=O)O)CCN(CC(=O)O)CC2)C(=O)N[C@@H](CC(=O)O)C(=O)N[C@@H](CC2CCCCC2)C(=O)N[C@@H](Cc2ccccc2)C(=O)N[C@H](CO)C(=O)N[C@H](CCCNC(=N)N)C(=O)N[C@@H](Cc2ccc(O)cc2)C(=O)N[C@@H](CC(C)C)C(=O)N[C@@H](Cc2c[nH]c3ccccc23)C(=O)N[C@@H](CO)C(N)=O)cc1 [[^177Lu]Lu-uPAR-15, metal not drawn]", "property": "tissue uptake at 24 h", "scale unit": "%ID/g", "recorded result": 0.21}
{"compound": "Cc1ccc(CCCC(=O)NCCOCCOCCOCCOCCC(=O)NC[C@H](NC(=O)CN2CCN(CC(=O)O)CCN(CC(=O)O)CCN(CC(=O)O)CC2)C(=O)N[C@@H](CC(=O)O)C(=O)N[C@@H](CC2CCCCC2)C(=O)N[C@@H](Cc2ccccc2)C(=O)N[C@H](CO)C(=O)N[C@H](CCCNC(=N)N)C(=O)N[C@@H](Cc2ccc(O)cc2)C(=O)N[C@@H](CC(C)C)C(=O)N[C@@H](Cc2c[nH]c3ccccc23)C(=O)N[C@@H](CO)C(N)=O)cc1 [[^177Lu]Lu-uPAR-14, metal not drawn]", "property": "tissue uptake at 24 h", "scale unit": "%ID/g", "recorded result": 0.26}
{"compound": "Cc1ccc(CCCC(=O)NCCCCCCCC(=O)NCCCC[C@H](NC(=O)CN2CCN(CC(=O)O)CCN(CC(=O)O)CCN(CC(=O)O)CC2)C(=O)N[C@@H](CC(=O)O)C(=O)N[C@@H](CC2CCCCC2)C(=O)N[C@@H](Cc2ccccc2)C(=O)N[C@H](CO)C(=O)N[C@H](CCCNC(=N)N)C(=O)N[C@@H](Cc2ccc(O)cc2)C(=O)N[C@@H](CC(C)C)C(=O)N[C@@H](Cc2c[nH]c3ccccc23)C(=O)N[C@@H](CO)C(N)=O)cc1 [[^177Lu]Lu-uPAR-12, metal not drawn]", "property": "tissue uptake at 24 h", "scale unit": "%ID/g", "recorded result": 1.4}

Incoming: Quick one: tissue uptake at 24 h of Cc1ccc(CCCC(=O)NCCOCCOCCOCCOCCOCCC(=O)NCCCC[C@H](NC(=O)CN2CCN(CC(=O)O)CCN(CC(=O)O)CCN(CC(=O)O)CC2)C(=O)N[C@@H](CC(=O)O)C(=O)N[C@@H](CC2CCCCC2)C(=O)N[C@@H](Cc2ccccc2)C(=O)N[C@H](CO)C(=O)N[C@H](CCCNC(=N)N)C(=O)N[C@@H](Cc2ccc(O)cc2)C(=O)N[C@@H](CC(C)C)C(=O)N[C@@H](Cc2c[nH]c3ccccc23)C(=O)N[C@@H](CO)C(N)=O)cc1 [[^177Lu]Lu-uPAR-18, metal not drawn] ?
Outgoing: 0.23

* * *

The reader will find reported Human blood plasma stability, intact radiopeptide values listed item by item below.
Assay type: in vitro ADME
Details: 4 h, 1 µM
Could you give me the number in %? Just the number is fine.

{"compound": "Cc1ccc(CCCC(=O)NCCOCCOCCOCCOCCC(=O)NCCCC[C@H](NC(=O)CN2CCN(CC(=O)O)CCN(CC(=O)O)CCN(CC(=O)O)CC2)C(=O)N[C@@H](CC(=O)O)C(=O)N[C@@H](CC2CCCCC2)C(=O)N[C@@H](Cc2ccccc2)C(=O)N[C@H](CO)C(=O)N[C@H](CCCNC(=N)N)C(=O)N[C@@H](Cc2ccc(O)cc2)C(=O)N[C@@H](CC(C)C)C(=O)N[C@@H](Cc2c[nH]c3ccccc23)C(=O)N[C@@H](CO)C(N)=O)cc1 [[^177Lu]Lu-uPAR-11, metal not drawn]", "scale unit": "%", "recorded result": 99}

Incoming: Looking for the measured Human blood plasma stability, intact radiopeptide of Cc1ccc(CCCC(=O)NCCOCCOCCOCCOCCOCCC(=O)NCCCC[C@H](NC(=O)CN2CCN(CC(=O)O)CCN(CC(=O)O)CCN(CC(=O)O)CC2)C(=O)N[C@@H](CC(=O)O)C(=O)N[C@@H](CC2CCCCC2)C(=O)N[C@@H](Cc2ccccc2)C(=O)N[C@H](CO)C(=O)N[C@H](CCCNC(=N)N)C(=O)N[C@@H](Cc2ccc(O)cc2)C(=O)N[C@@H](CC(C)C)C(=O)N[C@@H](Cc2c[nH]c3ccccc23)C(=O)N[C@@H](CO)C(N)=O)cc1 [[^177Lu]Lu-uPAR-18, metal not drawn] , can you help?
Outgoing: 99

Incoming: Cc1ccc(CCCC(=O)NCCCCCCCC(=O)NCCCC[C@H](NC(=O)CN2CCN(CC(=O)O)CCN(CC(=O)O)CCN(CC(=O)O)CC2)C(=O)N[C@@H](CC(=O)O)C(=O)N[C@@H](CC2CCCCC2)C(=O)N[C@@H](Cc2ccccc2)C(=O)N[C@H](CO)C(=O)N[C@H](CCCNC(=N)N)C(=O)N[C@@H](Cc2ccc(O)cc2)C(=O)N[C@@H](CC(C)C)C(=O)N[C@@H](Cc2c[nH]c3ccccc23)C(=O)N[C@@H](CO)C(N)=O)cc1 [[^177Lu]Lu-uPAR-12, metal not drawn] ?
Outgoing: 99

Incoming: Now consider Cc1ccc(CCCC(=O)NCCOCCOCCOCCOCCC(=O)NC[C@H](NC(=O)CN2CCN(CC(=O)O)CCN(CC(=O)O)CCN(CC(=O)O)CC2)C(=O)N[C@@H](CC(=O)O)C(=O)N[C@@H](CC2CCCCC2)C(=O)N[C@@H](Cc2ccccc2)C(=O)N[C@H](CO)C(=O)N[C@H](CCCNC(=N)N)C(=O)N[C@@H](Cc2ccc(O)cc2)C(=O)N[C@@H](CC(C)C)C(=O)N[C@@H](Cc2c[nH]c3ccccc23)C(=O)N[C@@H](CO)C(N)=O)cc1 [[^177Lu]Lu-uPAR-14, metal not drawn] and answer again.
Outgoing: 100

* * *

Assay: Biodistribution in HEK-uPAR xenografted nude mice
Settings: CD1 nude, mouse, muscle, 0.5 nmol/mouse, total radioactivity, Muscle uptake, 1 h p.i.; decay-corrected
property: tissue uptake at 1 h
I'd appreciate it if you included the unit after the number.

Incoming: So what's the measured tissue uptake at 1 h for this one? CC(C)C[C@H](NC(=O)[C@H](Cc1ccc(O)cc1)NC(=O)[C@@H](CCCNC(=N)N)NC(=O)[C@@H](CO)NC(=O)[C@H](Cc1ccccc1)NC(=O)[C@H](CC1CCCCC1)NC(=O)[C@H](CC(=O)O)NC(=O)CN1CCN(CC(=O)O)CCN(CC(=O)O)CCN(CC(=O)O)CC1)C(=O)N[C@@H](Cc1c[nH]c2ccccc12)C(=O)N[C@@H](CO)C(N)=O [[^177Lu]Lu-DOTA-AE105, metal not drawn]
Outgoing: 0.14 %ID/g
